- System: gene editing with Cas9
- ASSAY_INFO: Screen of 322 new SSAP proteins, gene editing activity with Cas9 (Table 5)
- Assay type: cell-based
- CONDITION_SUMMARY: normalized
Can you tell me Cas9 with SSAP activity (normalized) for the items I'm about to list?
The response must contain the number and no unit.

Return the recorded Cas9 with SSAP activity (normalized) value; entry: SSAP_164: SEQ ID NO: 333; Clostridium fimetarium (protein, listed as Clostridium fimetarium) ETIDIKQELASQAQTDSKKEVKLTKAMSIAEMIKAMMPEIKRALPSMITPERFTRIALSALNNTPELQACTPMSFISALLNAAQLGLEINSPLGHAYLIPYKNKGVLECQFQIGYLGLIALAYRNELMQTIQAQCVYENDEFLYEYGLNPKLVHRPATSDRGEPVFFYGLFKMINSGFGFCVMSKQEMDEFARTYSKGLASSFSPWKTSYNEMAKKTVIKQALKYAPIKTDFQKALSTDESIKYAISEDMTEAVNEIVSQNTEVA
−0.998

For SSAP_105: SEQ ID NO: 274; unclassified Lysinibacillus (protein, listed as Lysinibacillus sp.) ATTTDLKAQMQQAPATQQKPKTIDDYLKQMAPAMAQALPKHMDVDRLMRLAMTTIRTTPALKDADVSSLLGAVMQAAQLGLEPGLMGHCYLLPFKNNKKGITEVQFIIGYKGMIDLARRSGHIQSIYAHAVYQKDEFEYELGLDPKLKHKPCMDEDKGNFVGAYAVAHFKDGGYQFEFMSKAEIEKRKGRSKAANSTYSPWATDYEEMAKKTVVRHMWKYLPISVEMQQQVAYDEGTAPKREMKDITPETEFFVDAPEIEVEVVNE , write its Cas9 with SSAP activity (normalized).
−0.382
